MEASURED TARGET: Follistatin (Homo sapiens) (UniProt P19883)
Sequence (P19883 whole entry, looked up): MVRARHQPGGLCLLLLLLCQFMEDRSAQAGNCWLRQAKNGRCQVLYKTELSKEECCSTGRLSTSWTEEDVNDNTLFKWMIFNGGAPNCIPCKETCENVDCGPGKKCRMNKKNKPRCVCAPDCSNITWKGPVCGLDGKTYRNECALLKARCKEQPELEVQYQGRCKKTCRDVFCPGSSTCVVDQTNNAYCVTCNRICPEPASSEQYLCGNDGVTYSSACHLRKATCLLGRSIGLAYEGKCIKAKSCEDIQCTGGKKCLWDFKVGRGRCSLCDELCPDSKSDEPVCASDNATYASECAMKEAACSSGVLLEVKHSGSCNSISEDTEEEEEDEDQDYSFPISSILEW
EXPERIMENTAL PROTOCOL: FST protein binding to printed compounds – biochemical, small-molecule microarray, 635/667 nm fluorescence, primary screen (AID 1132)
ASSAY CONDITIONS: 635 nm fluorescence, higher = more signal
Documented composite z-score across a set of molecules
Number only, no unit.

[[record]]
molecule = "COCCOC(=O)N1C(=O)[C@@]2(c3cc(C#Cc4ccc(OC)cc4)ccc31)[C@H](c1ccc(O)cc1)N1[C@H](c3ccccc3)[C@H](c3ccccc3)OC(=O)[C@H]1[C@@H]2C(=O)N1CCN(c2ncccn2)CC1"
reported = 1.36

[[record]]
molecule = "O=c1cccc(-c2ccc3ccccc3c2)o1"
reported = 0.305

[[record]]
molecule = "COc1cc2c(cc1O)C(c1ccc(CN3CCCC3)cc1)N(Cc1sc3ccccc3c1Cl)CC2 (centres undefined)"
reported = 1.03


(Q) Please report the measured composite z-score for COCCOC(=O)N1C(=O)[C@@]2(c3cc(C#CC4(O)CCCCCC4)ccc31)[C@H](c1ccc(O)cc1)N1[C@H](c3ccccc3)[C@H](c3ccccc3)OC(=O)[C@H]1[C@@H]2C(=O)N1CCc2cc(OC)c(OC)cc2C1
(A) -0.792
